Tested on: SK-MEL-28 Melanoma
assay_protocol: In vitro cytotoxicity, free drugs on SK-MEL-28
Assay type: cell-based
test_context: Homo sapiens, SK-MEL-28; free drug
Starred links: 1 amine or outer side, 2 acyl side, 3 side chain; linkers in the order of their positions; H or OH if unused. Non-standard residues stand in square brackets, D forms with d. Residues, ends and D or L forms follow the SMILES beside them. *: point of attachment. X4 = CC(C)[C@@H](C(=O)[*:2])N(CCCCN(C)C(=O)OC(C)(C)C)[*:1]; Dolaproine = CO[C@@H]([C@@H]1CCCN1)[C@@H](C)C(=O)O; X2 = CC(C)[C@@H](C(=O)[*:2])N(C)CCCCCN(C)[*:1]; Dil = CC[C@H](C)[C@H](NC)[C@@H](CC(=O)O)OC; X6 = CC(C)[C@@H](C(=O)[*:2])N(C)CCCN[*:1]; Boc = CC(C)(C)OC(=O)*
measurement_type: pIC50
FYI, pIC50 means -log10 of a concentration in mol per litre.

Below, 2 compounds whose answers are already recorded.
1. CC[C@H](C)[C@@H]([C@@H](CC(=O)N1CCC[C@H]1[C@H](OC)[C@@H](C)C(=O)N[C@@H](Cc1ccccc1)C(=O)O)OC)N(C)C(=O)[C@@H](NC(=O)[C@@H](NCCCCN(C)C(=O)OC(C)(C)C)C(C)C)C(C)C [Compound 17, (Boc-N-methyl)-butyl-AF] (H-[X4]V[Dil][Dolaproine]F-OH) | 7.11
2. CC[C@H](C)[C@@H]([C@@H](CC(=O)N1CCC[C@H]1[C@H](OC)[C@@H](C)C(=O)N[C@@H](Cc1ccccc1)C(=O)O)OC)N(C)C(=O)[C@@H](NC(=O)[C@H](C(C)C)N(C)CCCCCN(C)C(=O)OC(C)(C)C)C(C)C [Compound 26, (Boc-N-methyl)-pentyl-AF] (Boc-[X2]V[Dil][Dolaproine]F-OH) | 8.02

Lab note: next compound to report on.
Incoming: Reported pIC50, compound CC[C@H](C)[C@@H]([C@@H](CC(=O)N1CCC[C@H]1[C@H](OC)[C@@H](C)C(=O)N[C@@H](Cc1ccccc1)C(=O)O)OC)N(C)C(=O)[C@@H](NC(=O)[C@H](C(C)C)N(C)CCCNC(=O)OC(C)(C)C)C(C)C [Compound 18, N-Boc-propyl-AF] (Boc-[X6]V[Dil][Dolaproine]F-OH) : ____
Outgoing: 7.68

This collection of values is drawn from patent US11857565B2.
